- subjectOfTest: CaBdf1 BD1 (Candida albicans, UniProt Q5A4W8)
- Sequence (Q5A4W8 206-315 limits assumed): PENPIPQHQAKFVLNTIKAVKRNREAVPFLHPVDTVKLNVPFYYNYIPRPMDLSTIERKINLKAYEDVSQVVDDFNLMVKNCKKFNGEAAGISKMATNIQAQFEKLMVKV
- protocolDetails: HTRF inhibition assay of BD binding to H4ac4 peptide
- appliedConditions: HTRF, strongest inhibition
- Text: FIG. 7. Homogeneous time-resolved fluorescence (HTRF) assay. a. Assay configuration. A biotinylated tetra-acetylated histone peptide is bound to streptavidin beads which are coupled to a terbium-based donor fluorophore, lumi-Tb cryptate. […] In this situation, excitation of the donor at 337 nm causes energy transfer to the […], whose emitted fluorescence is monitored at 665 nm in a time-resolved manner so as to eliminate transient background fluorescence. b-d. […]
measuredParameter: IC50

Reported IC50 of COc1cc2c(cc1-c1c(C)noc1C)ncc1[nH]c(=O)n([C@H](C)c3ccccn3)c12 [IBET-151, reference compound] : ~300 nM

Values were extracted from patent US10918647B2.
